Each entry below carries its reported % inhibition at 5.6 nM.
- Target or system: T1, full length human DLL4 (human, UniProt Q9NR61 27-685)
- T1 construct: whole, on cells; also called native DLL4 expressed in HEK293 cells
- T1 sequence (Q9NR61 27-685): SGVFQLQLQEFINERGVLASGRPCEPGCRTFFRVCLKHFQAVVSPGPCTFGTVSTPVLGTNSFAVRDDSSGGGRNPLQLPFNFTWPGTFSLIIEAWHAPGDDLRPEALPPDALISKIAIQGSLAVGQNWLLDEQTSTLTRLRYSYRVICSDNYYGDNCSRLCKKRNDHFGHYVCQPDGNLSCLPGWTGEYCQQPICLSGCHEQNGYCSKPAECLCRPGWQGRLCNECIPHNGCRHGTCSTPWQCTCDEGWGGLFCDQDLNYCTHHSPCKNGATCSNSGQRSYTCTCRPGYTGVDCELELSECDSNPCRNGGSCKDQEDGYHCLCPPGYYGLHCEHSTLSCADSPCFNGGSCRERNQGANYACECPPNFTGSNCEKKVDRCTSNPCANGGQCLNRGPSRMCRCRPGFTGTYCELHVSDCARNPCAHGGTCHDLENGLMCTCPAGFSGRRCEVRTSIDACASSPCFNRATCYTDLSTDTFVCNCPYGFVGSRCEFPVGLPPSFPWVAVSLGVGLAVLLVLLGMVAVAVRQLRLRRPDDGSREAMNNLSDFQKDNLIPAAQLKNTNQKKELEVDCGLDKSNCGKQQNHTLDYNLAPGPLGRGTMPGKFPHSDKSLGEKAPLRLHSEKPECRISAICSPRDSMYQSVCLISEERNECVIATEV
- Protocol description: FMAT competition, purified antibody vs Alexa-647 human Notch1/Fc, 293T cells with human DLL4
Answer with a number only, understood to be in %.

Please review the entries below; each comes with its answer.
>  <Binder>
1E4 (antibody, IgG2, V domains shown, Fully human; also used where no isotype is printed) VH: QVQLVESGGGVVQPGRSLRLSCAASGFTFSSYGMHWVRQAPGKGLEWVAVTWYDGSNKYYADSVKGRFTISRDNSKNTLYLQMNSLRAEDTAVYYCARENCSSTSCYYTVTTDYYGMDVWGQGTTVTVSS VL: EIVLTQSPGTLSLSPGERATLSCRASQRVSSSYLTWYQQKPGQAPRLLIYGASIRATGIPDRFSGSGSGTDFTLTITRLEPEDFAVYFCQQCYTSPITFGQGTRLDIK

>  <% inhibition at 5.6 nM / %>
129

$$$$
>  <Binder>
2H10 (antibody, IgG4, V domains shown, Fully human; used for IgG4 rows and where no isotype is printed; also called 2H10 IgG4) VH: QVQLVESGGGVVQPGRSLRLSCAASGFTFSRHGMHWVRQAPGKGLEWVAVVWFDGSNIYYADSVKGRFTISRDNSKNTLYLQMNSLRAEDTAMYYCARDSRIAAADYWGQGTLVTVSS VL: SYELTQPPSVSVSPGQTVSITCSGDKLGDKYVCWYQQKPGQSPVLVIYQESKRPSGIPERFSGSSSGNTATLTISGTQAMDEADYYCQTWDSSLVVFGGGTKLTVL

>  <% inhibition at 5.6 nM / %>
119

$$$$

**Query** Entry 20G8 (antibody, IgG4, V domains shown, Fully human; also used where no isotype is printed) VH: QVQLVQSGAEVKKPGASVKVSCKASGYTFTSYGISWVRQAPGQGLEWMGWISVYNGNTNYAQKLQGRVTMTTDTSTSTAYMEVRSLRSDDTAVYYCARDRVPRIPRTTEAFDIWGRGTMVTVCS VL: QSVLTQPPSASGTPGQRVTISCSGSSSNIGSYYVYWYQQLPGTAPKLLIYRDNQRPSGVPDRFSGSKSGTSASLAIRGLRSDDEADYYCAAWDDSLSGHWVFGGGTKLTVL needs its % inhibition at 5.6 nM filled in; supply it.
**Result** 114
